# Test system: native tau aggregates
# protocol notes: TAU radioligand in vitro displacement assay ([3H]T808 autoradiography on human AD brain sections)
# Format: binding
# particulars: compound 10 nM, radioligand [3H]T808 10 nM, 50 mM Tris pH 7.4, room temperature, 30 min
measured metric: % displacement of [3H]T808 (10 nM) at 10 nM (%)

Guide cases for % displacement of [3H]T808 (10 nM) at 10 nM, answers given:
COc1ccc(-c2cn3ccc(N(C)CCOCCF)nc3n2)cc1: 15
CN(C)c1ccc(-c2cn3ccc(NCCF)nc3n2)cc1: 34
COc1ccc(-c2cn3ccc(N4CC5(CCC5)C4)nc3n2)cc1: 11
CNc1ccn2cc(-c3ccc(SC)cc3)nc2n1: 34
FCCCOc1ccc(-c2cn3ccc(N4CCC4)nc3n2)cc1: 15
COc1ccc(-c2cn3ccc(NC(C)C)nc3n2)cc1: 15

1. COc1ccc(-c2cn3ccc(N4CCC4)nc3n2)cc1
2. CN(C)c1ccn2cc(-c3ccc(CO)cc3)nc2n1
Returns: the argument ( 1 or 2 ) having the larger % displacement of [3H]T808 (10 nM) at 10 nM. Please respond with the label that marks your chosen entry.
1

----------
# Test system: native tau aggregates
# protocol notes: TAU radioligand in vitro displacement assay ([3H]T808 autoradiography on human AD brain sections)
# Type: binding
# particulars: compound 10 nM, radioligand [3H]T808 10 nM, 50 mM Tris pH 7.4, room temperature, 30 min
measured metric: % displacement of [3H]T808 (10 nM) at 10 nM (%)

Answered cases to consult:
CN(C)c1ccc(-c2cn3ccc(N(C)CCF)nc3n2)cc1: 27
COc1cccc(-c2cn3ccc(N4CCCC4)nc3n2)c1: 20
CN(C)c1ccc(-c2cn3ccc(N4CCC(F)CC4)nc3n2)cc1: 15
FC1CCN(c2ccn3cc(-c4cc5ccccc5s4)nc3n2)CC1: 18
COc1ccc(-c2cn3ccc(N4CC[C@H](F)C4)nc3n2)cc1: 15

a. CNc1ccn2cc(-c3ccc4c(c3)OCO4)nc2n1
b. CNc1ccn2cc(-c3cccc(O)c3)nc2n1
c. CN(C)c1ccc(-c2cn3ccc(N(C)C)nc3n2)cc1
Order the records by % displacement of [3H]T808 (10 nM) at 10 nM, with each subsequent value no larger than the one before. The response must list the labels following the requested ordering.
c, a, b
(c: 43%, a: 28%, b: 16%)

I. FCOc1cccc(-c2cn3ccc(N4CCC4)nc3n2)c1
II. Cc1cccc(-c2cn3ccc(N(C)CCOCCF)nc3n2)c1
Pick one: I or II . Which has the bigger % displacement of [3H]T808 (10 nM) at 10 nM number? Label of pick, please.
I
(I: 23%, II: 14%)

----------
# Tested on: native tau aggregates
# protocol notes: TAU radioligand in vitro displacement assay ([3H]T808 autoradiography on human AD brain sections)
# Assay type: binding
# particulars: compound 10 nM, radioligand [3H]T808 10 nM, 50 mM Tris pH 7.4, room temperature, 30 min
measured metric: % displacement of [3H]T808 (10 nM) at 10 nM (%)

# annotated cases, reported % displacement of [3H]T808 (10 nM) at 10 nM shown
COc1ccc(-c2cn3ccc(N4CCOCC4)nc3n2)cc1OC: 17
CNc1ccn2cc(-c3ccc(C)cc3)nc2n1: 38
FC1CCN(c2ccn3cc(-c4nc5ccccc5s4)nc3n2)CC1: 12

I. FCOc1ccc(-c2cn3ccc(NC4CC4)nc3n2)cc1
II. CNc1ccn2cc(-c3ccc(CO)cc3)nc2n1
Problem: Given the entries I and II , determine which has the lower reported % displacement of [3H]T808 (10 nM) at 10 nM. Reply briefly: the label of your chosen item.
I
(I: 11%, II: 23%)

A. COc1ccc(-c2cn3ccc(NCC(F)(F)F)nc3n2)cc1
B. Cc1cccc(-c2cn3ccc(N4CCCC4)nc3n2)c1
Of A versus B , which is the one with smaller reported % displacement of [3H]T808 (10 nM) at 10 nM? In your reply, give the label of the chosen option.
A
(A: 8%, B: 23%)

----------
# Tested on: native tau aggregates
# protocol notes: TAU radioligand in vitro displacement assay ([3H]T808 autoradiography on human AD brain sections)
# Format: binding
# particulars: compound 1 uM, radioligand [3H]T808 10 nM, 50 mM Tris pH 7.4, room temperature, 30 min
measured metric: % displacement of [3H]T808 (10 nM) at 1 uM (%)

Fc1ccc(-c2cn3ccc(N4CCC(F)CC4)nc3n2)cc1: 65
FCOc1cccc(-c2cn3ccc(N4CCCC4)nc3n2)c1: 88
COc1ccc(-c2cn3ccc(N(C)CCF)nc3n2)cc1: 92
COc1cccc(-c2cn3ccc(N(C)CCF)nc3n2)c1: 82
CN(C)c1ccn2cc(-c3ccccc3)nc2n1: 92
COc1ccc(-c2cn3ccc(N4CCN(CCF)CC4)nc3n2)cc1.Cl: 74
FC1CCN(c2ccn3cc(-c4ccc(Cl)cc4)nc3n2)CC1: 58
FC1CCN(c2ccn3cc(-c4ccc(N5CCCC5)cc4)nc3n2)CC1: 75

----------
# Test system: native tau aggregates
# protocol notes: TAU radioligand in vitro displacement assay ([3H]T808 autoradiography on human AD brain sections)
# Type: binding
# particulars: compound 10 nM, radioligand [3H]T808 10 nM, 50 mM Tris pH 7.4, room temperature, 30 min
measured metric: % displacement of [3H]T808 (10 nM) at 10 nM (%)

Cc1ccc(-c2cn3ccc(N4CCC(CCF)CC4)nc3n2)cc1 [Example 60]: 15
CNc1ccn2cc(-c3cccc(Br)c3)nc2n1 [Example 99]: 27
Cc1ccc(-c2cn3ccc(N4CCC4)nc3n2)cc1 [Example 94]: 15
CN(C)c1ccc(-c2cn3ccc(N4CCOCC4)nc3n2)cc1 [Example 74]: 16

a. CN(CCF)c1ccn2cc(-c3ccc4c(c3)OCO4)nc2n1 [Example 87]
b. CN(C)c1ccn2cc(-c3ccccc3)nc2n1 [Example 18]
Lab notebook, comparison: a versus b , higher % displacement of [3H]T808 (10 nM) at 10 nM goes to which? Give the label of your selection.
b

----------
# Test system: native tau aggregates
# protocol notes: TAU radioligand in vitro displacement assay ([3H]T808 autoradiography on human AD brain sections)
# Format: binding
# particulars: compound 1 uM, radioligand [3H]T808 10 nM, 50 mM Tris pH 7.4, room temperature, 30 min
measured metric: % displacement of [3H]T808 (10 nM) at 1 uM (%)

Cl.FCCN1CCN(c2ccn3cc(-c4ccccc4)nc3n2)CC1 [Example 24]: 64
FCCOc1cccc(-c2cn3ccc(N4CCCC4)nc3n2)c1 [Example 17]: 76

a. FC1CCN(c2ccn3cc(-c4ccc5c(c4)OCO5)nc3n2)CC1 [Example 7]
b. Fc1ccccc1-c1cn2ccc(N3CCC(F)CC3)nc2n1 [Example 12]
Select one: a or b . Criterion: greater recorded % displacement of [3H]T808 (10 nM) at 1 uM. Lab log: write the label of the selected item as the result.
a

----------
# System: native tau aggregates
# protocol notes: TAU radioligand in vitro displacement assay ([3H]T808 autoradiography on human AD brain sections)
# Assay type: binding
# particulars: compound 10 nM, radioligand [3H]T808 10 nM, 50 mM Tris pH 7.4, room temperature, 30 min
measured metric: % displacement of [3H]T808 (10 nM) at 10 nM (%)

FCCOc1cccc(-c2cn3ccc(N4CCC4)nc3n2)c1: 5
FC1CCN(c2ccn3cc(-c4cc5ccccc5o4)nc3n2)CC1: 19
Cc1ccc(-c2cn3ccc(N4CCCC4)nc3n2)cc1: 28
CNc1ccn2cc(-c3cccc(C)c3)nc2n1: 48
COc1cccc(-c2cn3ccc(N(C)C)nc3n2)c1: 34
CNc1ccn2cc(-c3cccc(CO)c3)nc2n1: 11
CNc1ccn2cc(-c3ccc(C(=O)OC)cc3)nc2n1: 27
Cc1ccc(-c2cn3ccc(N4CCOCC4)nc3n2)cc1: 8

a. CCN(C)c1ccn2cc(-c3ccc(OC)cc3)nc2n1
b. FCCCOc1ccc(-c2cn3ccc(NC4CC4)nc3n2)cc1
c. FC1CCN(c2ccn3cc(-c4cccc(OC(F)(F)F)c4)nc3n2)CC1
d. COc1cc(OC)cc(-c2cn3ccc(N4CCC4)nc3n2)c1
Arrange these molecules by their % displacement of [3H]T808 (10 nM) at 10 nM, starting with the largest number. I'd appreciate it if you listed the labels in the requested order.
a, b, c, d

a. CN(C)c1ccn2cc(-c3ccc4c(c3)OCCO4)nc2n1
b. CNc1ccn2cc(-c3cc(OC)cc(OC)c3)nc2n1
Compare a and b and name the one whose reported % displacement of [3H]T808 (10 nM) at 10 nM is smaller. The response must carry the label of the picked entry.
b

1. Cc1cccc(-c2cn3ccc(N4CCC4)nc3n2)c1
2. Cc1cccc(-c2cn3ccc(N(C)CCF)nc3n2)c1
Compare % displacement of [3H]T808 (10 nM) at 10 nM: is it lower for 1 or for 2 ? Answer with the label corresponding to your selection.
2

1. COc1ccc(-c2cn3ccc(N4CCCCC4)nc3n2)cc1OC
2. CNc1ccn2cc(-c3ccc(OCCF)cc3)nc2n1
In terms of reported % displacement of [3H]T808 (10 nM) at 10 nM, does 1 or 2 have the smaller number? Pick one and reply with its label.
1
(1: 6%, 2: 43%)

Origin of measurements: patent US9801961B2
